Value source: ChEMBL document CHEMBL6103573

Test system: KYSE-450
Test: Antiproliferative activity against human KYSE-450 cells assessed as inhibition of cell proliferation incubated for 48 hrs by MTT assay
Format: functional, cell-based
Conditions: KYSE-450, 48 h
Task for the reader: assign each of the following compounds its reported IC50.
One number for each entry, in nM.

Consider the reported IC50 for these compounds:
CN(c1ccc2c(ccn2C(=O)OC(C)(C)C)c1)c1nc(Cl)nc2sccc12
152
CN(c1ccc2c(ccn2C)c1)c1nc(N2CCC(C(=O)OC(C)(C)C)CC2)nc2sccc12
422

In the following, a different compound is considered.
Report IC50 for `CN(c1ccc2c(ccn2C)c1)c1nc(N2CCSCC2)nc2sccc12` please.
289

====

Test system: MGC-803
Assay: Antiproliferative activity against human MGC-803 cells assessed as inhibition of cell proliferation incubated for 48 hrs by MTT assay
Format: functional, cell-based
Details: MGC-803, 48 h
Attribute Measured: pIC50
Numbers only, as −log10 of the molar value.

Consider the reported pIC50 for these compounds:
COC1CCN(c2nc(N(C)c3ccc4c(ccn4C)c3)c3ccsc3n2)CC1
8.17
CC1CCN(c2nc(N(C)c3ccc4c(ccn4C)c3)c3ccsc3n2)CC1
8.09
CN(c1ccc2c(ccn2C)c1)c1nc(N2CCC(Cl)CC2)nc2sccc12
7.74
CN(c1ccc2c(ccn2C)c1)c1ncnc2ccsc12
8.05
CN(c1ccc2c(ccn2C)c1)c1nc(N2CCCC2)nc2sccc12
8.79

For each entry beneath this line, provide reported pIC50.
1. CCN1CCN(c2nc(N(C)c3ccc4c(ccn4C)c3)c3ccsc3n2)CC1
2. CN(c1ccc2c(ccn2C(=O)OC(C)(C)C)c1)c1nc(Cl)nc2sccc12
3. CN(c1ccc2c(ccn2Cc2ccccc2)c1)c1nc(Cl)nc2sccc12
4. COc1cc2c(c(OC)c1OC)-c1ccc(OC)c(=O)cc1[C@@H](NC(C)=O)CC2 [COLCHICINE]
5. CC(=O)N1CCN(c2nc(N(C)c3ccc4c(ccn4C)c3)c3ccsc3n2)CC1
6. CCn1ccc2cc(N(C)c3nc(Cl)nc4sccc34)ccc21

1. 6.54
2. 6.60
3. 6.05
4. 7.36
5. 6.51
6. 7.40

For each entry beneath this line, provide reported pIC50.
1. CN(c1ccc2c(ccn2C)c1)c1nc(N2CCC(F)CC2)nc2sccc12
2. CN(c1ccc2c(ccn2C)c1)c1nc(Cl)nc2sccc12

1. 7.89
2. 8.68

====

System: HCT-116
Assay: Antiproliferative activity against human HCT-116 cells assessed as inhibition of cell proliferation incubated for 48 hrs by MTT assay
Type: functional, cell-based
Conditions: HCT-116, 48 h
Attribute Measured: IC50 (nM)
One number for each entry, in nM.

Consider the reported IC50 for these compounds:
CN(c1ccc2c(ccn2C)c1)c1nc(N2CCC2)nc2sccc12
18.2
COC1CCN(c2nc(N(C)c3ccc4c(ccn4C)c3)c3ccsc3n2)CC1
6.77
CN1CCN(c2nc(N(C)c3ccc4c(ccn4C)c3)c3ccsc3n2)CC1
441
CN(c1ccc2c(ccn2C)c1)c1nc(Cl)nc2sccc12
2.79
CCCN(c1ccc2c(ccn2C)c1)c1nc(Cl)nc2sccc12
125
CN(c1ccc2c(ccn2C)c1)c1nc(N2CCSCC2)nc2sccc12
129

For each entry beneath this line, provide reported IC50.
1. CN(c1ccc2c(ccn2C)c1)c1ncnc2ccsc12
2. CC(=O)N1CCN(c2nc(N(C)c3ccc4c(ccn4C)c3)c3ccsc3n2)CC1

[17.6, 487]
